Target: T1, AfAgo (Archaeoglobus fulgidus DSM 4304, UniProt O28951 1-427)
T1 sequence: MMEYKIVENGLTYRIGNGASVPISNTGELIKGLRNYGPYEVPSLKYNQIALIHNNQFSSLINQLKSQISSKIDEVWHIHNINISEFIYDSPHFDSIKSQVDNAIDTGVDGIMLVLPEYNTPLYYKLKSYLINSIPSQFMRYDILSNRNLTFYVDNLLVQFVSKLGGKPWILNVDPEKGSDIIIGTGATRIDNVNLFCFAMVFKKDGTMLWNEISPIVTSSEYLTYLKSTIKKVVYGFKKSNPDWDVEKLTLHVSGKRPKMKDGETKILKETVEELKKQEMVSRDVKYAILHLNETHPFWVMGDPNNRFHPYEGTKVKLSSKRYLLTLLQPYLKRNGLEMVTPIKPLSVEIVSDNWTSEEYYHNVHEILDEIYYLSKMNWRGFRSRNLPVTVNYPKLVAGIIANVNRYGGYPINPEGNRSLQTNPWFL
Test: EMSA; EMSA: 40 mM Tris-acetate pH 8.4 (25 C), 1 mM EDTA, 100 mM K-acetate, 0.1 mg/ml BSA, 1 mM DTT, 10% glycerol; 5 nM NA (1 nM 32P + 4 nM cold); 10 min at 25 C
Conditions: protein: recombinant; tags: N-terminal His (HisTrap; construct name NHis-Af1318); label: 5'-32P
For each record, write down the corresponding Kd.

Examples from the recorded data:
INSERT INTO measurements (binder, assay_metric, reported_result) VALUES
  ('GUUGUACACGGCCGAAC (ssRNA, 5''-phosphate) [MZ-1698 GUU ssRNA]', 'Kd', '42 nM'),
  ('AUUGUACACGGCCGAAU (ssRNA, 5''-phosphate) [MZ-1480 5''P-AUU ssRNA]', 'Kd', '3.8 nM'),
  ('ATTGTACACGGCCGAAT (ssDNA, 5''-phosphate) [MZ-1447 ATT ssDNA]', 'Kd', '236 nM'),
  ('AGUGUACACGGCCGACU (ssRNA, 5''-phosphate) [MZ-1707 AGU ssRNA]', 'Kd', '84 nM'),
  ('AUCGUACACGGCCGGAU (ssRNA, 5''-phosphate) [MZ-1706 AUC ssRNA]', 'Kd', '16 nM'),
  ('CUUGUACACGGCCGAAG (ssRNA, 5''-phosphate) [MZ-1708 CUU ssRNA]', 'Kd', '28 nM');

Moving on to another binder below.
Prompt: Fill blank: measured Kd of the binder UUUGUACACGGCCGAAA (ssRNA, 5'-phosphate) [MZ-1699 UUU ssRNA] is ____.
Response: 15 nM

These data points were gathered from paper PMC10104839.
